Biological target: T1, RhoC Q63L (UniProt P08134 1-190, limits assumed)
T1 construct: also called RhoC Q63L (2SHA); constitutively active RhoC mutant
T1 sequence (P08134 1-190 Q63L limits assumed): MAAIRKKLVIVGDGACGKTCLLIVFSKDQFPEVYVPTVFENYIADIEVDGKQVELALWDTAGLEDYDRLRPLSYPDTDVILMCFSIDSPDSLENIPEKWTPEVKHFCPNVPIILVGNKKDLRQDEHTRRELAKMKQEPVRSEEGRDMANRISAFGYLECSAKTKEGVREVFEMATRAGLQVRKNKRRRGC
Assay: binding kinetics, method not stated (Table 1)
measure: koff (s⁻¹)
Numeric answer only, unit s⁻¹ assumed.

Examples from the recorded data:
- binder: "4SNP61 hs2dAb (VHH) VHH: VQLQASGGGFVQPGGSLRLSCAASGFTSTSTVMGWFRQAPGKEREFVSAISSAHTMDTYYADSVKGRFTISRDNSKNTVYLQMNSLRAEDTATYYCAPAPMLGQMITQPALPYWGQGTQVTVSS"
  koff [s⁻¹]: 0.0046
- binder: "B6 hs2dAb (VHH, also called hs2dAb B6) VHH: VQLQASGGGFVQPGGSLRLSCAASGYGSTIETMGWFRQAPGKEREFVSAISRAPGPSQYYADSVKGRFTISRDNSKNTVYLQMNSLRAEDTATYYCAPINNRTMQDSMFLWNYWGQGTQVTVSS"
  koff [s⁻¹]: 0.000625
- binder: "5SNP65 hs2dAb (VHH) VHH: VQLQASGGGFVQPGGSLRLSCAASGATYEGEAMGWFRQAPGKEREFVSAISSYPSVISYYADSVKGRFTISRDNSKNTVYLQMNSLRAEDTATYYCAYWVNHEGTIREIYWGQGTQVTVSS"
  koff [s⁻¹]: 0.001

Please turn your attention to the following entry.
Recorded koff for 5SNP48 hs2dAb (VHH) VHH: VQLQASGGGFVQPGGSLRLSCAASGTSWFTEVMGWFRQAPGKEREFVSAISGLHDVGTYYADSVKGRFTISRDNSKNTVYLQMNSLRAEDTATYYCAALDKWYTKAMDARKDYWGQGTQVTVSS , please?
0.000901
